Values from ChEMBL document CHEMBL1799953

*1 amine or outer side, *2 acyl side, *3 side chain or, on linkers, in order; H or OH if unused. Where a SMILES comes first, the peptide text is derived from it. Bridges are numbered along the chain shown (N, C = ends). [ ]: non-standard residue; d: D form. N(6-aminohexyl)Gly = O=C(CN(CCCCCCN[*:3])[*:1])[*:2]; NGly(3-aminopropyl) = O=C(CN(CCCN[*:3])[*:1])[*:2]; N(2-Aminoethyl)Gly = O=C(CN(CCN[*:3])[*:1])[*:2]; Gly(N-2-aminoethyl) = NCCNCC(=O)O; Gly(N(CH2)3NH2) = NCCCNCC(=O)O; hLeu = CC(C)CC[C@H](N)C(=O)O; Nva = CCC[C@H](N)C(=O)O; Dap = NC[C@H](N)C(=O)O; CO = O=C([*:1])[*:2]; Nlys = NCCCCNCC(=O)O
The next entries give measured pIC50 for RAC-alpha serine/threonine-protein kinase (Homo sapiens).
Kindly note that pIC50 refers to -log10 of the concentration in mol/L and answer with the value alone.

Task item: # pIC50 lookup, item CCC[C@@H]1NC(=O)[C@H](CCCNC(=N)N)NC(=O)CN(C(=O)[C@@H](N)CCCNC(=N)N)CCCCNC(=O)NCCCCN(CC(N)=O)C(=O)[C@H](CCC(C)C)NC(=O)[C@H](CN)NC(=O)[C@H](Cc2ccc(O)cc2)NC1=O (H-R[Nlys]R[Nva]Y[Dap][hLeu][Nlys]-NH2; linker 2-8 via CO)
Reply: 6.77

Task item: What about this compound? CCC[C@@H]1NC(=O)[C@H](CCCNC(=N)N)NC(=O)CN(C(=O)[C@@H](N)CCCNC(=N)N)CCNC(=O)NCCCCCCN(CC(N)=O)C(=O)[C@H](CCC(C)C)NC(=O)[C@H](CN)NC(=O)[C@H](Cc2ccc(O)cc2)NC1=O (H-R[N(2-Aminoethyl)Gly]R[Nva]Y[Dap][hLeu][N(6-aminohexyl)Gly]-NH2; linker 2-8 via CO)
Reply: 6.54

Task item: What about this compound? CCC[C@@H]1NC(=O)[C@H](CCCN=C(N)N)NC(=O)CN(C(=O)[C@@H](N)CCCN=C(N)N)CCCNC(=O)NCCCN(CC(N)=O)C(=O)[C@H](CCC(C)C)NC(=O)[C@H](CN)NC(=O)[C@H](Cc2ccc(O)cc2)NC1=O (H-R[NGly(3-aminopropyl)]R[Nva]Y[Dap][hLeu][NGly(3-aminopropyl)]-NH2; linker 2-8 via CO)
Reply: 6.23

Task item: What about this compound? CCC[C@@H]1NC(=O)[C@H](CCCNC(=N)N)NC(=O)CN(C(=O)[C@@H](N)CCCNC(=N)N)CCCCCCNC(=O)NCCCN(CC(N)=O)C(=O)[C@H](CCC(C)C)NC(=O)[C@H](CN)NC(=O)[C@H](Cc2ccc(O)cc2)NC1=O (H-R[N(6-aminohexyl)Gly]R[Nva]Y[Dap][hLeu][NGly(3-aminopropyl)]-NH2; linker 2-8 via CO)
Reply: 6.80

Task item: What about this compound? CCC[C@H](NC(=O)[C@H](CCCN=C(N)N)NC(=O)CN(CCN)C(=O)[C@@H](N)CCCN=C(N)N)C(=O)N[C@@H](Cc1ccc(O)cc1)C(=O)N[C@@H](CN)C(=O)N[C@@H](CCC(C)C)C(=O)N(CCCN)CC(N)=O (H-R[Gly(N-2-aminoethyl)]R[Nva]Y[Dap][hLeu][Gly(N(CH2)3NH2)]-NH2)
Reply: 6.60

Task item: What about this compound? CCC[C@H](NC(=O)[C@H](CCCNC(=N)N)NC(=O)CN(CCCN)C(=O)[C@@H](N)CCCNC(=N)N)C(=O)N[C@@H](Cc1ccc(O)cc1)C(=O)N[C@@H](CN)C(=O)N[C@@H](CCC(C)C)C(=O)N(CCCN)CC(N)=O (H-R[Gly(N(CH2)3NH2)]R[Nva]Y[Dap][hLeu][Gly(N(CH2)3NH2)]-NH2)
Reply: 6.89
